- Target Under Test: human μ opiate receptor (Homo sapiens, UniProt P35372)
- Sequence (P35372 whole entry): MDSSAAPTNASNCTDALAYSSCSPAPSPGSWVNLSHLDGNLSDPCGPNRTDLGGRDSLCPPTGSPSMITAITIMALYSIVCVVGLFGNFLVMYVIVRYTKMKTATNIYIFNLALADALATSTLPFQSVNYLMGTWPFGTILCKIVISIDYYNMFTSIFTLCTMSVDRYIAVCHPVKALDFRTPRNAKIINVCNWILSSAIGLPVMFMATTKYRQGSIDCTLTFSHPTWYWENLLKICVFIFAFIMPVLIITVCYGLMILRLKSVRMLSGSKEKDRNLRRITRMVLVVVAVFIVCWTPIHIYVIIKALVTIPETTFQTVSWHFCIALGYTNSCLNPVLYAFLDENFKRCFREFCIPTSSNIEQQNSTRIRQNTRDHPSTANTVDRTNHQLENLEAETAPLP
- Test Method Notes: μ opiate receptor binding assay with [3H]-naloxone, membrane preparation of CHO-K1 cells (WGA-SPA beads)
- Experimental Conditions: mean; read-out: Ki (μ) mean [μm]
# label = YES if Ki < 0.5 µM else NO

• CN(C)C1(c2cccs2)CCC2(CCN(Cc3ccncc3)C2=O)CC1 (centres unmarked) = YES
• CCCCC1(N(C)C)CCC2(CC1)CC(=O)N(Cc1ccccc1)C2 (centres unmarked) = NO
• CN(C)C1(C(=O)c2cccs2)CCC2(CCN(Cc3ccccc3)C2)CC1 (single isomer, unassigned) [Example No. 72] = NO
• CN(C)C1(C(=O)c2cccs2)CCC2(CCN(Cc3ccccc3)C2)CC1 (single isomer, unassigned) [Example No. 71] = YES
• CN(C)C1(C(=O)c2ccccc2)CCC2(CCN(Cc3ccccc3)C2)CC1 (single isomer, unassigned) = YES

====

- Target Under Test: human μ opiate receptor (Homo sapiens, UniProt P35372)
- Test Method Notes: μ opiate receptor binding assay with [3H]-naloxone, membrane preparation of CHO-K1 cells (WGA-SPA beads)
- Experimental Conditions: read-out: MOP Ki
Metric: Ki (nM)

• COC(=O)c1ccc(N2C[C@]3(CC[C@@](c4ccccc4)(N(C)C)CC3)CC2=O)cc1 = 420
• CN(C)[C@]1(c2ccccn2)CC[C@]2(CC1)CC(=O)N(CCCC(N)=O)C2 = 2430
• CN(C)[C@]1(c2cnccn2)CC[C@]2(CC1)CC(=O)N(CCCC(N)=O)C2 = 825
• CN(C)[C@]1(c2ccccc2)CC[C@]2(CC1)CC(=O)N(CC(C)(C)C(=O)NCCc1cncnc1)C2 = 320

This collection of values is drawn from patent US10214520B2.
